experimentSummary: Timed organ biodistribution of [^64Cu]Cu-DOTATATE by ex vivo gamma counting
Type: in vivo, mice
conditionInfo: mouse, bone marrow, intravenous, 1.85 MBq, total radioactivity; female C57BL/6 mice, 120 min after injection, median (IQR), N=3-7; read-out: Tissue radioactivity, bone marrow
assayMetric: tissue uptake at 2 h (%ID/g)

molecule: C[C@@H](O)[C@H](NC(=O)[C@@H]1CSSC[C@H](NC(=O)[C@@H](Cc2ccccc2)NC(=O)CN2CCN(CC(=O)O)CCN(CC(=O)O)CCN(CC(=O)O)CC2)C(=O)N[C@@H](Cc2ccc(O)cc2)C(=O)N[C@H](Cc2c[nH]c3ccccc23)C(=O)N[C@@H](CCCCN)C(=O)N[C@@H]([C@@H](C)O)C(=O)N1)C(=O)O [[^64Cu]Cu-DOTATATE, metal not drawn]
recordedMeasurement: 2.5

---

experimentSummary: Timed organ biodistribution of [^64Cu]Cu-DOTATATE by ex vivo gamma counting
Assay type: in vivo, mice
conditionInfo: mouse, heart, intravenous, 1.85 MBq, total radioactivity; female C57BL/6 mice, 15 min after injection, median (IQR), N=3-7; read-out: Tissue radioactivity, heart

compound: C[C@@H](O)[C@H](NC(=O)[C@@H]1CSSC[C@H](NC(=O)[C@@H](Cc2ccccc2)NC(=O)CN2CCN(CC(=O)O)CCN(CC(=O)O)CCN(CC(=O)O)CC2)C(=O)N[C@@H](Cc2ccc(O)cc2)C(=O)N[C@H](Cc2c[nH]c3ccccc23)C(=O)N[C@@H](CCCCN)C(=O)N[C@@H]([C@@H](C)O)C(=O)N1)C(=O)O [[^64Cu]Cu-DOTATATE, metal not drawn]
unitsSymbol: %ID/g
tissue uptake at 0.25 h: 1.1

---

experimentSummary: Timed organ biodistribution of [^64Cu]Cu-DOTATATE by ex vivo gamma counting
Format: in vivo, mice
conditionInfo: mouse, kidneys, intravenous, 1.85 MBq, total radioactivity; female Apoe^-/- mice 12 weeks on Western Diet, 1 min after injection, median (IQR), N=3-8; read-out: Tissue radioactivity, kidneys

molecule: C[C@@H](O)[C@H](NC(=O)[C@@H]1CSSC[C@H](NC(=O)[C@@H](Cc2ccccc2)NC(=O)CN2CCN(CC(=O)O)CCN(CC(=O)O)CCN(CC(=O)O)CC2)C(=O)N[C@@H](Cc2ccc(O)cc2)C(=O)N[C@H](Cc2c[nH]c3ccccc23)C(=O)N[C@@H](CCCCN)C(=O)N[C@@H]([C@@H](C)O)C(=O)N1)C(=O)O [[^64Cu]Cu-DOTATATE, metal not drawn]
unitsSymbol: %ID/g
tissue uptake at 1 min: 15.6

---

experimentSummary: Timed organ biodistribution of [^64Cu]Cu-DOTATATE by ex vivo gamma counting
Assay type: in vivo, mice
conditionInfo: mouse, aortic arch, intravenous, 1.85 MBq, total radioactivity; female Apoe^-/- mice 12 weeks on Western Diet, 1 min after injection, median (IQR), N=3-8; read-out: Tissue radioactivity, aortic arch

compound: C[C@@H](O)[C@H](NC(=O)[C@@H]1CSSC[C@H](NC(=O)[C@@H](Cc2ccccc2)NC(=O)CN2CCN(CC(=O)O)CCN(CC(=O)O)CCN(CC(=O)O)CC2)C(=O)N[C@@H](Cc2ccc(O)cc2)C(=O)N[C@H](Cc2c[nH]c3ccccc23)C(=O)N[C@@H](CCCCN)C(=O)N[C@@H]([C@@H](C)O)C(=O)N1)C(=O)O [[^64Cu]Cu-DOTATATE, metal not drawn]
tissue uptake at 1 min [%ID/g]: 2.9

---

experimentSummary: Timed organ biodistribution of [^64Cu]Cu-DOTATATE by ex vivo gamma counting
Assay type: in vivo, mice
conditionInfo: mouse, aortic arch, intravenous, 1.85 MBq, total radioactivity; female C57BL/6 mice, 120 min after injection, median (IQR), N=3-7; read-out: Tissue radioactivity, aortic arch

compound: C[C@@H](O)[C@H](NC(=O)[C@@H]1CSSC[C@H](NC(=O)[C@@H](Cc2ccccc2)NC(=O)CN2CCN(CC(=O)O)CCN(CC(=O)O)CCN(CC(=O)O)CC2)C(=O)N[C@@H](Cc2ccc(O)cc2)C(=O)N[C@H](Cc2c[nH]c3ccccc23)C(=O)N[C@@H](CCCCN)C(=O)N[C@@H]([C@@H](C)O)C(=O)N1)C(=O)O [[^64Cu]Cu-DOTATATE, metal not drawn]
unitsSymbol: %ID/g
tissue uptake at 2 h: 1.2

---

experimentSummary: Organ biodistribution of [^68Ga]Ga-DOTATATE by ex vivo gamma counting
Format: in vivo, New Zealand White rabbits
conditionInfo: male, New Zealand White, rabbit, adrenal gland, iv, 190 MBq, total radioactivity, male control rabbits, 200 min after tracer injection, median (IQR), N = 6; read-out: Tissue radioactivity, adrenal gland

compound: C[C@@H](O)[C@H](NC(=O)[C@@H]1CSSC[C@H](NC(=O)[C@@H](Cc2ccccc2)NC(=O)CN2CCN(CC(=O)O)CCN(CC(=O)O)CCN(CC(=O)O)CC2)C(=O)N[C@@H](Cc2ccc(O)cc2)C(=O)N[C@H](Cc2c[nH]c3ccccc23)C(=O)N[C@@H](CCCCN)C(=O)N[C@@H]([C@@H](C)O)C(=O)N1)C(=O)O [[^68Ga]Ga-DOTATATE, metal not drawn]
tissue uptake at 200 min (%ID/g): 0.003

---

experimentSummary: Timed organ biodistribution of [^64Cu]Cu-DOTATATE by ex vivo gamma counting
Type: in vivo, mice
conditionInfo: mouse, pancreas, intravenous, 1.85 MBq, total radioactivity; female Apoe^-/- mice 12 weeks on Western Diet, 15 min after injection, median (IQR), N=3-8; read-out: Tissue radioactivity, pancreas
assayMetric: tissue uptake at 0.25 h (%ID/g)

compound: C[C@@H](O)[C@H](NC(=O)[C@@H]1CSSC[C@H](NC(=O)[C@@H](Cc2ccccc2)NC(=O)CN2CCN(CC(=O)O)CCN(CC(=O)O)CCN(CC(=O)O)CC2)C(=O)N[C@@H](Cc2ccc(O)cc2)C(=O)N[C@H](Cc2c[nH]c3ccccc23)C(=O)N[C@@H](CCCCN)C(=O)N[C@@H]([C@@H](C)O)C(=O)N1)C(=O)O [[^64Cu]Cu-DOTATATE, metal not drawn]
assayMetric: tissue uptake at 0.25 h
recordedMeasurement: 3.5

---

experimentSummary: Timed organ biodistribution of [^64Cu]Cu-DOTATATE by ex vivo gamma counting
Assay type: in vivo, mice
conditionInfo: mouse, spleen, intravenous, 1.85 MBq, total radioactivity; female Apoe^-/- mice 12 weeks on Western Diet, 1 min after injection, median (IQR), N=3-8; read-out: Tissue radioactivity, spleen
assayMetric: tissue uptake at 1 min (%ID/g)

compound: C[C@@H](O)[C@H](NC(=O)[C@@H]1CSSC[C@H](NC(=O)[C@@H](Cc2ccccc2)NC(=O)CN2CCN(CC(=O)O)CCN(CC(=O)O)CCN(CC(=O)O)CC2)C(=O)N[C@@H](Cc2ccc(O)cc2)C(=O)N[C@H](Cc2c[nH]c3ccccc23)C(=O)N[C@@H](CCCCN)C(=O)N[C@@H]([C@@H](C)O)C(=O)N1)C(=O)O [[^64Cu]Cu-DOTATATE, metal not drawn]
assayMetric: tissue uptake at 1 min
recordedMeasurement: 2

---

experimentSummary: Timed organ biodistribution of [^64Cu]Cu-DOTATATE by ex vivo gamma counting
Assay type: in vivo, mice
conditionInfo: mouse, bladder, intravenous, 1.85 MBq, total radioactivity; female C57BL/6 mice, 30 min after injection, median (IQR), N=3-7; read-out: Tissue radioactivity, bladder

compound: C[C@@H](O)[C@H](NC(=O)[C@@H]1CSSC[C@H](NC(=O)[C@@H](Cc2ccccc2)NC(=O)CN2CCN(CC(=O)O)CCN(CC(=O)O)CCN(CC(=O)O)CC2)C(=O)N[C@@H](Cc2ccc(O)cc2)C(=O)N[C@H](Cc2c[nH]c3ccccc23)C(=O)N[C@@H](CCCCN)C(=O)N[C@@H]([C@@H](C)O)C(=O)N1)C(=O)O [[^64Cu]Cu-DOTATATE, metal not drawn]
tissue uptake at 0.5 h: 6.8 %ID/g

---

experimentSummary: Timed organ biodistribution of [^64Cu]Cu-DOTATATE by ex vivo gamma counting
Format: in vivo, mice
conditionInfo: mouse, lungs, intravenous, 1.85 MBq, total radioactivity; female C57BL/6 mice, 5 min after injection, median (IQR), N=3-7; read-out: Tissue radioactivity, lungs

compound: C[C@@H](O)[C@H](NC(=O)[C@@H]1CSSC[C@H](NC(=O)[C@@H](Cc2ccccc2)NC(=O)CN2CCN(CC(=O)O)CCN(CC(=O)O)CCN(CC(=O)O)CC2)C(=O)N[C@@H](Cc2ccc(O)cc2)C(=O)N[C@H](Cc2c[nH]c3ccccc23)C(=O)N[C@@H](CCCCN)C(=O)N[C@@H]([C@@H](C)O)C(=O)N1)C(=O)O [[^64Cu]Cu-DOTATATE, metal not drawn]
unitsSymbol: %ID/g
tissue uptake at 5 min: 3.2

---

experimentSummary: Timed organ biodistribution of [^64Cu]Cu-DOTATATE by ex vivo gamma counting
Format: in vivo, mice
conditionInfo: mouse, lungs, intravenous, 1.85 MBq, total radioactivity; female Apoe^-/- mice 12 weeks on Western Diet, 1 min after injection, median (IQR), N=3-8; read-out: Tissue radioactivity, lungs
assayMetric: tissue uptake at 1 min (%ID/g)

compound: C[C@@H](O)[C@H](NC(=O)[C@@H]1CSSC[C@H](NC(=O)[C@@H](Cc2ccccc2)NC(=O)CN2CCN(CC(=O)O)CCN(CC(=O)O)CCN(CC(=O)O)CC2)C(=O)N[C@@H](Cc2ccc(O)cc2)C(=O)N[C@H](Cc2c[nH]c3ccccc23)C(=O)N[C@@H](CCCCN)C(=O)N[C@@H]([C@@H](C)O)C(=O)N1)C(=O)O [[^64Cu]Cu-DOTATATE, metal not drawn]
assayMetric: tissue uptake at 1 min
recordedMeasurement: 2.1
